Parameter MIC: see the listing below.
# Test system: Streptococcus pneumoniae
# protocol_notes: Determination of MIC values (BHI broth, 96 well microtiter plate)
# Format: cell-based
# experimental_context: Streptococcus pneumoniae; S. pneu; BHI broth, overnight 37° C.; read-out: MIC S. pneu
# Protocol: Stock solutions of compounds are prepared with a concentration of 10 mg/mL. These solutions are then diluted 1:4 to give a concentration of 2.5 mg/mL. The compounds are then serially diluted 1:2 for 6 iterations. The concentrations made for each compound are 2.5, 1.25, 0.625, 0.3125, 0.156, 0.078, and 0.039 mg/mL. A control sample (no compound) is run along with each compound tested. All dilutions are made in DMSO. […]

- compound: "COc1ccc(NC(=O)CCc2cc(-c3c[nH]c4ccc(Br)cc34)nc3ccc(C#CCN4CCCCC4)cc23)cc1"
  value_observed: "< 7 µg/mL"
- compound: "Cn1cc(-c2cc(C(=O)NCc3ccc(CN)cc3)c3cc(C#CCN4CCCC4)ccc3n2)c2cc(Br)ccc21"
  value_observed: "< 25 µg/mL"
- compound: "NCc1cccc(CNC(=O)c2cc(-c3c[nH]c4ccc(Br)cc34)nc3c(F)cccc23)c1"
  value_observed: "< 7 µg/mL"
- compound: "O=[N+]([O-])c1cccc2nc(-c3c[nH]c4ccc(Br)cc34)ccc12"
  value_observed: "> 25 µg/mL"
- compound: "Clc1cc(-c2c[nH]c3ccc(Br)cc23)nc2ccccc12"
  value_observed: "< 7 µg/mL"

Quick note, MIC for `OCc1cc(-c2c[nH]c3ccc(Br)cc23)nc2cc(Br)ccc12` landed at < 7 µg/mL

###

Parameter MIC: see the listing below.
# Test system: methicillin-resistant Staphylococcus aureus (MRSA)
# protocol_notes: Determination of MIC values (BHI broth, 96 well microtiter plate)
# Assay type: cell-based
# experimental_context: Staphylococcus aureus, MRSA; BHI broth, overnight 37° C.; read-out: MIC MRSA

Worked cases, answers included:
- compound: "NCc1ccc(CNC(=O)c2cc(-c3c[nH]c4ccc(Br)cc34)nc3cc(C#CCNCCc4ccc(Cl)cc4)ccc23)cc1"
  MIC: "< 7 mg/L"
- compound: "NCCNC(=O)c1cc(-c2c[nH]c3ccc(Br)cc23)nc2cc(Cl)cc(Cl)c12"
  MIC: "< 7 mg/L"
- compound: "Clc1cc(-c2c[nH]c3c(Cl)cccc23)nc2ccccc12"
  MIC: "< 7 mg/L"
- compound: "CN(CC#Cc1ccc2nc(-c3cn(C)c4ccc(Br)cc34)cc(C(=O)NCc3ccc(CN)cc3)c2c1)C1CCCCC1"
  MIC: "< 7 mg/L"
- compound: "Cn1cc(-c2cc(C(=O)NCC3CCC(CN)CC3)c3cc(Cl)ccc3n2)c2cc(Br)ccc21 (centres unmarked)"
  MIC: "< 7 mg/L"
- compound: "COc1ccc2[nH]cc(-c3ccc4cc(Cl)ccc4n3)c2c1"
  MIC: "> 25 mg/L"
- compound: "NCc1ccc(CNC(=O)c2cc(-c3c[nH]c4ccc(Br)cc34)nc3ccc(C#CCN4CCNCC4)cc23)cc1"
  MIC: "< 7 mg/L"
- compound: "Fc1cccc2[nH]cc(-c3cc(Cl)c4ccccc4n3)c12"
  MIC: "< 25 mg/L"
- compound: "NCc1cccc(CNC(=O)c2cc(-c3c[nH]c4ccc(Br)cc34)nc3cc(Br)ccc23)n1"
  MIC: "< 7 mg/L"
- compound: "NCCNC(=O)c1cc(-c2c[nH]c3ccc(Br)cc23)nc2c(F)cccc12"
  MIC: "< 7 mg/L"

Quick note, MIC for `Clc1ccc2nc(-c3c[nH]c4c(Cl)cccc34)ccc2c1` landed at > 25 mg/L

Quick note, MIC for `NCCNC(=O)c1cc(-c2c[nH]c3ccc(Br)cc23)nc2ccc(Br)cc12` landed at < 7 mg/L

Quick note, MIC for `OCc1cc(-c2c[nH]c3ccc(Br)cc23)nc2cc(Br)ccc12` landed at < 7 mg/L

Quick note, MIC for `NCc1ccc(CNC(=O)c2cc(-c3c[nH]c4ccc(Br)cc34)nc3cc(Cl)cc(Cl)c23)cc1` landed at < 7 mg/L
